Some compounds, each annotated with its measured Concentration of substrate in cell medium.
Test system: SW480 cell line
assay: Cell metabolism of phenolic compounds (UHPLC-HR-MS analysis of cell media)
Assay type: in vitro ADME, Human
condition_details: SW480, 48 h, initial 50 μmol/L
Procedure: To analyze the metabolism of phenolic compounds by Caco-2 and SW480 cells, the cell culture media were withdrawn after 0, 24, 48 and 72 h of incubation. Phenolic compounds were extracted from the culture media by following the procedure reported in Sala et al.. Briefly, 100 μL of cold methanol was mixed with 100 μL of cell media and vortexed for 1 min. […] Quantification was carried out by building external calibration curves with the available standard compounds.
experimental_readout: Concentration of substrate in cell medium (µM)

compound="O=C(O)CCc1cccc(O)c1 [3-(3′-Hydroxyphenyl)propanoic acid, 3-(3′-hydroxyphenyl)propanoic acid]" data_value=50.70
compound="O=C(/C=C/c1ccc(O)c(O)c1)OC1CC(O)(C(=O)O)CC(OC(=O)/C=C/c2ccc(O)c(O)c2)C1O (stereo not drawn) [3,5-di-O-Caffeoylquinic acid, 3,5-di-O-caffeoylquinic acid]" data_value=5.41
compound="O=c1c(O)c(-c2ccc(O)c(O)c2)oc2cc(O)cc(O)c12 [Quercetin, quercetin]" data_value=40.37
compound="O=C(O)Cc1ccc(O)c(O)c1 [3-(3′,4′-Dihydroxyphenyl)acetic acid, 3-(3′,4′-dihydroxyphenyl)acetic acid]" data_value=15.84
compound="O=C(O)Cc1cccc(O)c1 [3-(3′-Hydroxyphenyl)acetic acid, 3-(3′-hydroxyphenyl)acetic acid]" data_value=42.81
compound="O=c1c(O)c(-c2ccc(O[C@@H]3O[C@H](CO)[C@@H](O)[C@H](O)[C@H]3O)c(O)c2)oc2cc(O)cc(O)c12 [Quercetin-4′-O-glucoside, quercetin-4′-O-glucoside]" data_value=0.07
